Quick reference: CC50 at 24 h of the listed items.
Test: Antiproliferative activity against human WI38 cells incubated for 24 hrs by MTT assay
Format: cell-based, WI-38
Conditions: read-out: LD50
experimental_endpoint: CC50 at 24 h (µM)

>>> quantitative_readout("O=C(/C=C/c1ccccc1Cl)c1ccc(OCc2cn([C@@H]3O[C@H](CO)[C@@H](O)[C@H](O)[C@H]3O)nn2)cc1")
68
>>> quantitative_readout("O=C(/C=C/c1cccc([N+](=O)[O-])c1)c1ccc(OCc2cn([C@@H]3O[C@H](CO)[C@@H](O)[C@H](O)[C@H]3O)nn2)cc1")
69
>>> quantitative_readout("O=C(/C=C/c1ccc(OCc2ccccc2)cc1)c1ccc(OCc2cn([C@@H]3O[C@H](CO)[C@@H](O)[C@H](O)[C@H]3O)nn2)cc1")
68
